Reference source for all entries: ChEMBL document CHEMBL3639109

# Assay target: Gag-Pol polyprotein (Human immunodeficiency virus type 1 group M subtype B (isolateBRU/LAI) (HIV-1), UniProt P03367)
# Assay remarks: Inhibition Assay: Inhibition of HIV integrase.

Smiles string: CNS(=O)(=O)CCCCC#N
IC50 [nM]: 1600
--
Smiles string: CNS(=O)(=O)CCCCN=[N+]=[N-]
IC50 [nM]: 250
--
Smiles string: COC(=O)c1nc(Br)c2cccnc2c1OCc1ccccc1
IC50 [nM]: 950
--
Smiles string: CNS(=O)(=O)CCCCN
IC50 [nM]: 360
--
Smiles string: CCOC(=O)c1cc(F)ccc1C#N
IC50 [nM]: 68000
--
Smiles string: COC(=O)c1nc(Br)c2cccnc2c1OS(=O)(=O)c1ccc(C)cc1
IC50 [nM]: 200
--
Smiles string: CNS(=O)(=O)CCCCNC(=O)OC(C)(C)C
IC50 [nM]: 1200
--
Smiles string: CNS(=O)(=O)CCCCCl
IC50 [nM]: 1000
